# Assay explanation: Pharmacokinetics after intravenous and oral administration in rats
# Type: in vivo, rat
# Test parameters: rat, plasma, iv dosing, dose 1 mg/kg, read-out: Vss
Measurement type: Vd (L/kg)

The cases that follow already have their Vd on record.
1. Cc1noc(-c2c(N)ncnc2N[C@@H](C)c2nc3cccc(Cl)c3c(=O)n2C2CC2)n1 [Ex. 41]; 6.68
2. C[C@H](Nc1ncnc(N)c1-c1nnn(C)n1)c1nc2cccc(Cl)c2c(=O)n1C1CC1 [Ex. 42]; 5.15
3. CC(C)c1nc(-c2c(N)ncnc2N[C@@H](C)c2nc3cccc(Cl)c3c(=O)n2C2CC2)no1 [Ex. 59]; 7.32
4. CC[C@@H](Nc1ncnc(N)c1-c1nc(C)no1)c1nc2cccc(Cl)c2c(=O)n1C1CC1 [Ex. 19]; 6.98

a = CC[C@H](Nc1ncnc(N)c1-c1nnc(C)o1)c1nc2cccc(C)c2c(=O)n1C1CC1 [Ex. 20]
b = CC[C@H](Nc1ncnc(N)c1-c1ncnn1C)c1nc2cccc(Cl)c2c(=O)n1C1CC1 [Ex. 9]
c = CC[C@H](Nc1ncnc(N)c1-c1ncn(C)n1)c1nc2cccc(C)c2c(=O)n1-c1ccccc1C [Ex. 30]
d = Cc1nc(-c2c(N)ncnc2N[C@@H](C)c2nc3cccc(Cl)c3c(=O)n2C2CC2)no1 [Ex. 33]
Q. Task for the reader: rank each entry by its Vd, from the minimum upward. Would you mind listing the labels in the order requested?
A. b, c, a, d

###

# Assay explanation: Pharmacokinetics after intravenous and oral administration in rats
# Assay type: in vivo, rat
# Test parameters: iv dosing, dose 1 mg/kg
Measurement type: clearance (CL) (mL/min/kg)

Some entries whose results are on file:
1. CCc1noc(-c2c(N)ncnc2N[C@@H](CC)c2nc3cccc(Cl)c3c(=O)n2C2CC2)n1; 74.7
2. CC[C@H](Nc1ncnc(N)c1-c1noc(C)n1)c1nc2cccc(C)c2c(=O)n1-c1ccccc1C; 74.2
3. CC[C@H](Nc1ncnc(N)c1-c1ncc(C)o1)c1nc2cccc(Cl)c2c(=O)n1C1CC1; 54.8
4. CC[C@H](Nc1ncnc(N)c1-c1ccon1)c1nc2cccc(Cl)c2c(=O)n1C1CC1; 46.7
5. CC[C@H](Nc1ncnc(N)c1-c1ncn(C)n1)c1nc2cccc(C)c2c(=O)n1C1CC1; 54.2

A = Cc1nc(-c2c(N)ncnc2N[C@@H](C)c2nc3cccc(Cl)c3c(=O)n2C2CC2)no1
B = CC[C@H](Nc1ncnc(N)c1-c1ncn(C)n1)c1nc2cccc(Cl)c2c(=O)n1C1CC1
Q. So which one has the bigger clearance (CL) here, A or B ? Provide the label of your selected option as the answer.
A. A

a = CC[C@H](Nc1ncnc(N)c1-c1nc(COC)n(C)n1)c1nc2cccc(Cl)c2c(=O)n1C1CC1
b = CC[C@H](Nc1ncnc(N)c1C1=N[C@@H](C)CO1)c1nc2cccc(Cl)c2c(=O)n1-c1ccccc1
Q. Sorting ascending by clearance (CL), which comes first: a or b ? Please reply using the label of the selected record.
A. a

###

# Assay explanation: Pharmacokinetics after intravenous and oral administration in rats
# Format: in vivo, rat
# Test parameters: iv dosing, dose 0.5 mg/kg
Measurement type: clearance (CL) (mL/min/kg)

1. CC[C@H](Nc1ncnc(N)c1-c1ccccn1)c1nc2cccc(Cl)c2c(=O)n1C1CC1; 4.83
2. CC[C@H](Nc1ncnc(N)c1-c1nnc(C)o1)c1nc2cccc(Cl)c2c(=O)n1-c1ccccc1C; 53

1 = CC[C@H](Nc1ncnc(N)c1-c1nnc(C)o1)c1nc2cccc(Cl)c2c(=O)n1-c1ccccc1
2 = CC[C@H](Nc1ncnc(N)c1-c1ncnn1C)c1nc2cccc(Cl)c2c(=O)n1-c1ccccc1
Q. Of 1 and 2 , whose reported clearance (CL) is the larger number? In your reply, give the label of the chosen option.
A. 1
(1: 47.3 mL/min/kg, 2: 3.5 mL/min/kg)
